Overview of reported Area Under Peak across a group of binders:
target_of_assay: T1, FLAG-huIL-17A (human, UniProt Q16552 24-155)
T1 construct: also called FLAG-huL-17A; FLAG-IL-17A
T1 sequence: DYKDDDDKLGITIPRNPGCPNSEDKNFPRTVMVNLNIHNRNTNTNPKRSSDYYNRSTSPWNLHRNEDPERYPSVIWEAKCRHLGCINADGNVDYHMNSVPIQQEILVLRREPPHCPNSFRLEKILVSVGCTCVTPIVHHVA
experiment_description: ECL (Origen), antibody titrated against biotinylated antigen; area under the curve
Just the number, please, no unit attached.

# return recorded Area Under Peak for entry rat 1D10 (antibody, V domains shown, Parental rat monoclonal antibody; also called ID10; anti-IL-17A antibody 1D10) VH: QVQLKESGPGLVQPSQTLSLTCTVSGFSLTNYYVHWVRQPPGKGLEWMGGVWNDGDTSYNSVLRSRLSITRDTSKSQVLLKMSSLQTEDTATYYCAREGREGFVGYYVMDAWGPGASVTVSS VL: DIQMTQSPSFLSASVGERVTLSCKASQNINKYLDWFQQKLGEAPKLLIYNADNLHTGIPSRFSGSGSFSDFILTISSLQPEDDATYFCLQRESWPYTFGAGTKLELKR
477000

# return recorded Area Under Peak for entry rat 30C10 (antibody, V domains shown, Parental rat monoclonal antibody (hybridoma PTA-7739); also called 30C10C) VH: EVQLVESGGGLVQPGRSQKLSCVVSGFTFNNYWMTWIRQAPGKGLEWVASVSNTGSSTYYPASVKGRFTISRDNAKSTLYLQMNSLRSEDTATYYCTREGAYYLDYWGQGVMVTVSS VL: DIVMTQSPSSLAVSPGETVTINCKSSQSLFWSESHMNYLAWYQQKPGQSPKLLIYYASTRQSGVPDRFIGSGSGTDFTLTISGVQAEDLAVYYCHHHYDSHTFGAGTKLELKR
312000

Taken from patent US20090175881A1.
